# Measured target: Angiotensin-converting enzyme (Rattus norvegicus) (UniProt P47820)
# Sequence (P47820 whole entry): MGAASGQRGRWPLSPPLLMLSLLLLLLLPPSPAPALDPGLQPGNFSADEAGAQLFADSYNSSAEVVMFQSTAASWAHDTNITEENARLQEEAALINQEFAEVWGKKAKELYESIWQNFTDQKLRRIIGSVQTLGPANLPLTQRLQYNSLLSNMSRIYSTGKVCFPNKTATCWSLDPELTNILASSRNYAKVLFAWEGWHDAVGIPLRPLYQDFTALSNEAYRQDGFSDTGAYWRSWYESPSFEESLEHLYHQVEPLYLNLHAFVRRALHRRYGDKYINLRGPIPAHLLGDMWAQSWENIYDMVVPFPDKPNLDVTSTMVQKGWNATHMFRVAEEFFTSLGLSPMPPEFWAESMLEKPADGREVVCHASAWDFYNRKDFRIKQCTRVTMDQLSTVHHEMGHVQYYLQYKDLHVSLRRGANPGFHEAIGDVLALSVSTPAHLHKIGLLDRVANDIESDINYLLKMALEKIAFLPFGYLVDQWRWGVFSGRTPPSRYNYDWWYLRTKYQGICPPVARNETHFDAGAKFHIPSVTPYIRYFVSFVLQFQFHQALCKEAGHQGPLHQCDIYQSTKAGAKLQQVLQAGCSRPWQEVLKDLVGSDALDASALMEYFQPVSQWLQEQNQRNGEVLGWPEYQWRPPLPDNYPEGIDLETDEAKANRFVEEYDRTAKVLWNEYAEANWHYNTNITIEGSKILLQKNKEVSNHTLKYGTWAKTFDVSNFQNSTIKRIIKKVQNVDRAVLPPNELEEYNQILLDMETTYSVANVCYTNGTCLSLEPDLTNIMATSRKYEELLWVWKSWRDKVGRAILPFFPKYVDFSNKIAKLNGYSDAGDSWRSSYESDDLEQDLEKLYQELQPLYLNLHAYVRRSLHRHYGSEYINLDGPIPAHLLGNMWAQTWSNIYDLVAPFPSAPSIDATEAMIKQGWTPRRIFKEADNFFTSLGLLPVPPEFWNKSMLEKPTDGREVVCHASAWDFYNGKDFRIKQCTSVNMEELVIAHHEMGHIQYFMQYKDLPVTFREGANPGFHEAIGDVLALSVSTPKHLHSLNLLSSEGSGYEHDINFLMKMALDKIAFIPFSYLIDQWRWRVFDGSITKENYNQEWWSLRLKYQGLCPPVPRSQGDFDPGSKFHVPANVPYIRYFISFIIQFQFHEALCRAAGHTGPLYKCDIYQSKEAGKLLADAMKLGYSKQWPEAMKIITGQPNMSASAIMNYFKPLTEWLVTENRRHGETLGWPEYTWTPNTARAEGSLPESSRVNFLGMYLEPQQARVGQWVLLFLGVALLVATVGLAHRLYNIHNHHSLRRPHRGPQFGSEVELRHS
# Assay name: Change in mean arterial blood pressure (MABP) after 20 mg/kg (po) dosage in Aorta-Coated renal hypertensive rat at 0.5 h
# Assay type: functional, organism-based
# Parameters: dose 20 mg/kg
Property name: Delta MABP (mmHg)

>>> reported_measurement("COc1ccc(C(=O)C(CC(=O)N2CCCC2C(=O)O)SC(C)=O)cc1F (centres undefined)")
-12.7
>>> reported_measurement("CC(=O)SC(CC(=O)N1CCCC1C(=O)O)C(=O)c1cccc(F)c1 (centres undefined)")
-17
>>> reported_measurement("O=C(SC(CC(=O)N1CCCC1C(=O)O)C(=O)c1ccc(Br)cc1)c1ccccc1 (centres undefined)")
-10
>>> reported_measurement("CC(=O)SC(CC(=O)N1CCCC1C(=O)O)C(=O)c1ccc(C(C)(C)C)cc1 (centres undefined)")
-30
>>> reported_measurement("CC(=O)S[C@@H](C(=O)c1ccc(Br)cc1)[C@@H](C)C(=O)N1CCC[C@H]1C(=O)O")
-27.1
>>> reported_measurement("CC(=O)SC(CC(=O)N1CCCC1C(=O)O)C(=O)c1ccc(F)cc1 (centres undefined)")
-15.8
>>> reported_measurement("CC(=O)S[C@H](C(=O)c1cccc(F)c1)[C@@H](C)C(=O)N1CCC[C@H]1C(=O)O")
-24.8
>>> reported_measurement("CC(=O)S[C@H](C(=O)c1ccccc1)[C@@H](C)C(=O)N1CCC[C@H]1C(=O)O")
-23
>>> reported_measurement("CC(=O)S[C@@H](C(=O)c1cccc(F)c1)[C@@H](C)C(=O)N1CCC[C@H]1C(=O)O")
-17.5

Origin of measurements: ChEMBL document CHEMBL1122345
